GI50 reference
Test system: HCT-116
experiment summary: NCI tumour cell line growth inhibition, 48 h
Active and inactive are the calls of the source. Rule as the data show it: active = GI50 up to about 1.1 µM and inactive = higher.

Worked cases, GI50 given:
CC(=O)OCC1(C)C(O)CCC2(C)C1CCC1CC3CC12CCC3(O)CO (configuration not stated) ... 76 µM (inactive)
O=C1/C(=C/c2cccc([N+](=O)[O-])c2)N=C(c2ccccc2)N1c1nc2c(Cl)cc(Cl)cc2s1 ... 19.5 µM (inactive)
Nc1ncnc2c1ncn2C1OC(CSC(F)(F)F)C(O)C1O (configuration not stated) ... > 100 µM (inactive)
Nc1nc2sc3ccccc3c(=O)n2n1 ... > 100 µM (inactive)
CN(/C(=N\O)c1ccccc1)c1ccccc1 ... 46.7 µM (inactive)
COc1ccc2cc3nc(O)cc(O)c3cc2c1OC ... > 100 µM (inactive)
CCCC(=O)Nc1cc(/C=C/C(=O)N2CC(CCl)c3ccc(N)cc32)n(C)c1 (configuration not stated) ... 0.129 µM (active)
COC(=O)C(CC(=O)Nc1ccc(Cl)c(Cl)c1)C(=O)C(=O)Nc1ccc(Cl)c(Cl)c1 (configuration not stated) ... > 100 µM (inactive)
CSc1ccc2c(c1)N(CCCN(C)C)c1ccccc1S2 ... 12.7 µM (inactive)
CCCCCCCC/C=C\CCCCCCC(F)C(=O)O (configuration not stated) ... > 12.5 µM (inactive)

**Q:** // lookup GI50 for COC(=O)C1=C(C(=O)OC)C23C=CC=CC24C(C(=O)OC)=C(C(=O)OC)C4C1C3 (configuration not stated)
**A:** 77.1 µM (inactive)

**Q:** # repeat for CC1(C)NC(C(=O)c2ccccc2)=[N+]([O-])C1(O)c1ccccc1 (configuration not stated)
**A:** 74.5 µM (inactive)

====

Test system: OVCAR-8
experiment summary: NCI tumour cell line growth inhibition, 48 h
The source made the active and inactive calls. Rule as the data show it: active = GI50 up to about 1.1 µM and inactive = higher.
value type: GI50

Nc1ccc(C(=O)/C=C/c2ccccc2O)cc1 ... > 100 µM (inactive)
CC#CC(OCC)(OCC)OCC ... > 100 µM (inactive)
COc1ccc(/N=C\c2ccc(N(CCC#N)S(=O)(=O)c3ccccc3)cc2C)cc1 ... > 100 µM (inactive)
c1ccc(Cc2cccc3cc(-c4ccc(-c5ccccc5)cc4)[nH]c23)cc1 ... 45.8 µM (inactive)
O=C1c2ccccc2-c2nc(-c3cccs3)cc3c2c1nc1ccccc13 ... 41.8 µM (inactive)

**Q:** // lookup GI50 for "Nc1ncnc2c1N=CN(Oc1ccccc1)N2"
**A:** > 100 µM (inactive)

**Q:** # repeat for "O=C1N/N=C\Nc2ccc(cc2)S(=O)(=O)c2ccc(cc2)/N=C\NNC1=O"
**A:** > 100 µM (inactive)

====

Test system: NCI-H226
experiment summary: NCI tumour cell line growth inhibition, 48 h
Active and inactive are the calls of the source. Cut-off read from the data, not from the text of the source: active = GI50 up to about 1.1 µM and inactive = higher.
# valid calls are Y = active, N = inactive; nothing else

Observe how each entry below is paired with its result.
CC(C)(CN1CCCCC1)C(=O)CC(SCCS(=O)(=O)O)c1ccc(Cl)c(Cl)c1 (stereo not drawn) ... N
O=C1NN=C2C=C(c3ccc(Cl)cc3)CC(c3cccc(Br)c3)C12 (stereo not drawn) ... N
CC(Br)C(=O)NN1C2=C(Nc3ccccc31)c1cccc3cccc2c13 (stereo not drawn) ... N
Cc1cccc(C)c1NC(=O)CCCC(=O)C1CC(=O)CCC1=O (stereo not drawn) ... N
[N-]=[N+]=NCC(O)Cn1cnc2c(NC(=O)c3ccccc3)ncnc21 (stereo not drawn) ... N
CCOC(=O)NC1C2CC(=O)OC(O2)C1OC(C)=O (stereo not drawn) ... Y
OCc1ccccc1O[C@H]1O[C@H](CO)[C@@H](O)[C@H](O)[C@H]1O ... N
N#Cc1cccc(NC(=O)c2ccc(C(=O)O)c(C(=O)c3ccc(C(=O)O)c(C(=O)Nc4cccc(C#N)c4)c3)c2)c1 ... N
CN(C)C(=O)Oc1c(Br)cc(Br)cc1C(=O)OCc1ccccc1 ... N
O=S(=O)(O)c1ccc2cc(/N=N/c3c(O)ccc4ccccc34)ccc2c1 ... N

**Q:** Please state the recorded outcome for this compound: "S=C(/N=c1\sc(NCc2ccccc2)nc2sc3c(c12)CCN(N1CCc2c(sc4nc(NCc5ccccc5)s/c(=N\C(=S)NCc5ccccc5)c24)C1)C3)NCc1ccccc1"
**A:** N

**Q:** # repeat for "CCOC(=O)/C(=C/c1ccc(C(=O)OC)cc1)N(CC)CC"
**A:** N

**Q:** # repeat for "O=C1N/N=C\Nc2ccc(cc2)S(=O)(=O)c2ccc(cc2)/N=C\NNC1=O"
**A:** N

**Q:** # repeat for "C/C(CC(=O)Nc1ccc(C)c(C)c1)=N\NC(N)=S"
**A:** N

**Q:** # repeat for "Cc1ccc(S(=O)(=O)c2ccccc2[N+](=O)[O-])cc1"
**A:** N

**Q:** # repeat for "NCCCN(CCCN(C(=O)Nc1ccccc1)c1ccccc1)C(=O)Nc1ccccc1"
**A:** N

**Q:** # repeat for "COc1cccc(OCC(=N/NC(=O)c2ccncc2)/N=C/c2cccnc2)c1"
**A:** N
